test system: OVCAR-5 ovarian; assay: NCI-60 one-dose screen, 48 h; conditions: 10 µM unless noted
About 83,000 compounds went through this panel and 20% of them were active in at least one assay; those are over-represented in the sample as a whole. Active and inactive are the calls of the source. Rule for the calls: active = growth percent below 10; inactive = the rest.
Parameter call: string, one of y (active), n (inactive)

Incoming: # lookup: test call for COC(=O)C1CCC(NC(=O)c2csc([C@@H](C[C@H](C(C)C)N(C)C(=O)[C@@H](NC(=O)[C@H]3CCCCN3C)C(C)C)OC(C)=O)n2)CC1 (stereo partly drawn)
Outgoing: n

Incoming: # lookup: test call for CC1CCCC(C[N+](C)(C)C)C1=O (stereo not drawn)
Outgoing: n

Incoming: Short answer needed: outcome of this test for "CC(=O)[O][Hg][c]1c(N)c(C)cc(C)c1F" ?
Outgoing: n

Incoming: Query: recorded result category for "CCOC(=O)CCN(C)C1=Nc2ccc(Cl)cc2C(c2ccccc2)=[N+]([O-])C1" in this test
Outgoing: n

Incoming: Lab log entry: "COC(=O)[C@@H](C)C[C@H](Cc1ccccc1)NC(=O)c1csc([C@@H](C[C@H](C(C)C)N(C)C(=O)C2(NC(=O)[C@H]3CCCCN3C)CC2)OC(C)=O)n1" — outcome as called in the assay?
Outgoing: n

Incoming: Which outcome was entered for the compound "C/C(=C\c1ccn(-c2ccc(N)cc2C(F)(F)F)n1)[C@@H]1C[C@@H]2O[C@]2(C)CCC[C@H](C)[C@H](O)[C@@H](C)C(=O)C(C)(C)[C@@H](O)CC(=O)O1" in this test?
Outgoing: n

Incoming: Hi, sorry to bother you, what did the test record for "Cc1c(C)c([N+](=O)[O-])c(C)c(C)c1[N+](=O)[O-]" ?
Outgoing: n

Incoming: Test call, this compound: O=C(CC1(O)C(=O)N(Cc2ccccc2)c2ccccc21)c1ccc(C(=O)NCC2CCC3(CC2)OOC2(CCCCC2)OO3)cc1 (stereo not drawn)
Outgoing: n

Incoming: Status in this test for CCCCCSC1C2C(=O)C(Br)=CC13CCNc1c(O)c4c5c(c13)=[N+]2CCC=5C=N4 (stereo not drawn) ?
Outgoing: y

Incoming: Recorded test call requested for "CN[C@]1(c2ccccc2Cl)CCCC[C@H]1NCCCN1CCN(C)CC1"
Outgoing: n

Incoming: Called result for "C[C@@]12CC=C3c4nc(Nc5cccc(O)c5)sc4CC[C@]3(C)[C@H]1CC[C@]1(C)C(=O)CC[C@@H]21"
Outgoing: n

Incoming: Short answer needed: outcome of this test for "O=c1[nH]c2ccc([N+](=O)[O-])cc2c(=O)o1" ?
Outgoing: n

Incoming: Tell me the assay call for "NC(CCl)CCl" please.
Outgoing: n

Incoming: Dear colleague, could you share the recorded outcome for "Clc1cc(N2CC2)nc(N2CC2)n1" when you have a moment?
Outgoing: n

Incoming: Any idea what this test logged for CC(C)(C)N1CC1C#N (stereo not drawn) ?
Outgoing: n

Incoming: What was the test verdict on "COC(=O)[C@H](Cc1ccccc1)NC(=O)c1csc([C@@H](C[C@H](C(C)C)N(C)C(=O)[C@@H](NC(=O)[C@H]2CCCN2C)C2CC2)OC(C)=O)n1" ?
Outgoing: n

Incoming: Per the records of this test, what outcome belongs to "Cc1cc(C)cc(Nc2nc3c(s2)CC[C@@]2(C)C3=CC[C@@H]3[C@@H]2CC[C@]2(C)C(=O)CC[C@@H]32)c1" ?
Outgoing: n

Incoming: What outcome does the record of this test show for CC(C)COC(C[N+](=O)[O-])C(Cl)(Cl)Cl (stereo not drawn) ?
Outgoing: n

Incoming: # lookup: test call for "O=C(Nc1ccc(Cl)cc1)Nc1nccs1"
Outgoing: n

Incoming: Please let me know the test result on file for "CN(CCCCN(C)CCOS(C)(=O)=O)CCOS(C)(=O)=O" .
Outgoing: n

Incoming: Entry "CC(=O)Nc1ccc(NC(=O)c2ccc([As](O)O)cc2)cc1" : call = ?
Outgoing: n

Incoming: Identify the outcome logged in this assay for the compound shown: "COc1ccc(NC([Se])=NC23CC4CC(CC(C4)C2)C3)cc1"
Outgoing: y

Incoming: Assay outcome for O=C1OCCC1Br (stereo not drawn) : what was it?
Outgoing: n

Incoming: What call does the record list for "C[n+]1c(/C=C/c2ccc(N(CCCl)CCCl)cc2)sc2ccccc21" ?
Outgoing: n

Incoming: Field: outcome | Entry: "CC1=C([Te]c2ccc(O)cc2)C(=O)c2ccccc2C1=O"
Outgoing: n

Incoming: Name the outcome recorded for "Nc1nnnc2nc[nH]c12" in the assay.
Outgoing: y

Incoming: Field: outcome | Entry: "CC1=C(CCCOC(=O)[C@H](N)CC(C)C)C2=C(C)C3(CC3)[C@@](C)(O)C(=O)C2=C1"
Outgoing: n

Incoming: Just curious, what result did "Fc1cccc(NCOOC2(OOCNc3cccc(F)c3)CCCCC2)c1" get here?
Outgoing: n

Incoming: GET /call?item= "Fc1ccc2c(c1)c(-c1nc(-c3c[nH]c4ncccc34)cs1)cn2CCCCN1CCCCC1" returns the recorded outcome of this test.
Outgoing: y

Incoming: Answer briefly: the call reported for "CC[C@H](C)[C@@H]1OC(=O)C(C)(C)[C@H](O)[C@H](Cc2ccccc2)OC(=O)[C@H](C(C)C)OC(=O)[C@@H](NC(=O)c2cccc(NC=O)c2O)[C@@H](C)OC1=O" in this assay.
Outgoing: n

Incoming: Returns: the outcome recorded for "Nc1c(F)cc(-c2nc3cc(F)ccc3[se]2)cc1F" in this assay.
Outgoing: n

Incoming: Short answer needed: outcome of this test for "CCCC[C@H](NC(=O)[C@H]1CCCCN1C)C(=O)N(C)[C@H](C[C@@H](OC(C)=O)c1nc(C(=O)N[C@@H](Cc2ccccc2)C[C@H](C)C(=O)OCC)cs1)C(C)C" ?
Outgoing: n

Incoming: Each compound tested received a call. Report the one for "CC(=O)/C=C/c1ccc2c(c1)OCO2" .
Outgoing: n

Incoming: // outcome(item) with item = ClCCN(CCCl)c1nc(Cl)c(C2CC(c3ccccc3)=NN2c2cc(Cl)cc(Cl)c2)s1 (stereo not drawn)
Outgoing: n

Incoming: Please indicate how the test categorized O=C(CC1(O)C(=O)N(Cc2ccccc2)c2ccc(Cl)cc21)c1ccc(C(=O)NCC2CCC3(CC2)OOC2(CCCCC2)OO3)cc1 (stereo not drawn) .
Outgoing: y

Incoming: Test call, this compound: O=C1Nc2ccccc2C2c3cccn3-c3ccccc3CN12 (stereo not drawn)
Outgoing: n

Incoming: Dear all, I need the recorded test outcome for "CCOP(=O)(NC[C@H]1O[C@](O)(CO)[C@@H](O)[C@@H]1O)OCC" , thank you.
Outgoing: n

Incoming: Status in this test for COc1cc(/C=N/C2=C(C#N)C(c3ccco3)c3c(c4cc(C)ccc4oc3=O)O2)cc(OC)c1OC (stereo not drawn) ?
Outgoing: n

###

system: MCF7 breast; experiment: NCI-60 one-dose screen, 48 h (100 = growth as untreated, 0 = no growth, -100 = all killed); conditions: 10 µM unless noted
Compounds without any hit were thinned out: in the full panel of roughly 83,000, 20% have a hit.
Can you tell me growth for the items I'm about to list?
Output spec: scalar in %, unitless text.

growth reading for NC(=O)c1c(Br)n(C2OC(CO)C(O)C2O)c2ncnc(N)c12 (centres undefined) : -18.6

The recorded growth for "C[C@]12CC[C@@H]3c4ccc(Oc5nc(N6CC6)nc(N6CC6)n5)cc4CC[C@H]3[C@@H]1CCC2=O" is 20.6

"O=Cc1cn(Cc2ccc(Cl)cc2)c2ccccc12" has a reported growth of 55.5

Reported growth for "C/C(CC(C)(C)N1CC1)=N\NC(=O)Nc1cccc2ccccc12" was 24.9

Lab note: measured growth of "C[C@@]12CC[C@@H](O)C[C@@H]1CC[C@H]1[C@H]2CC[C@@]2(C)[C@H](c3ccc(=O)oc3)CC[C@@]12O" was -27

// field: growth; key: "c1ccc(CSC(c2ccccc2)c2ccccc2)cc1" ; value = 124

The recorded growth for "Cc1ccc(C(=O)NCCCOc2ccc(N3C(N)=NC(N)=NC3(C)C)cc2Cl)cc1S(=O)(=O)F" is 75.4

Value of measured growth for the entry "Cn1cc(-c2csc(-c3cn(CCCCN4CCCCC4)c4ccccc34)n2)c2cccnc21" : -65.9

// recorded growth for "CC(C)[C@]12O[C@H]1[C@@H]1O[C@]13[C@]1(O[C@H]1C[C@H]1c4c(C(=O)c5ccccc5)oc(OC(=O)c5ccccc5)c4CC[C@@]13C)[C@@H]2O" : 12.5

###

tested on: HT29 colon; experiment: NCI-60 one-dose screen, 48 h; conditions: 10 µM unless noted
The panel holds about 83,000 compounds, 20% with a hit somewhere; the sample as a whole holds those more often. Active and inactive are the calls of the source. The calls were made as follows: active = growth percent below 10; inactive = the rest.
// classify into active, inactive

Incoming: Please share the test call associated with "CC1=C(CCCOC(=O)[C@H](N)CC(C)C)C2=C(C)C3(CC3)[C@@](C)(O)C(=O)C2=C1" .
Outgoing: inactive

Incoming: // outcome(item) with item = O=C(CC1(O)C(=O)Nc2ccccc21)c1ccc(C(=O)NCC2CCC3(CC2)OOC2(CCCCC2)OO3)cc1 (stereo not drawn)
Outgoing: inactive

Incoming: Which outcome did this test record for the molecule "CCCCCCCC[N+](C)(CCCCCCCC)CCCCCCCC" ?
Outgoing: active

Incoming: Query: recorded result category for "CC[C@H](NC(=O)[C@H]1CCCCN1C)C(=O)N(C)[C@H](C[C@@H](OC(C)=O)c1nc(C(=O)N[C@@H](Cc2ccccc2)C[C@H](C)C(=O)O)cs1)C(C)C" in this test
Outgoing: active

Incoming: What is the recorded call for this molecule in the test? CC(CO)NC1CCCCC1 (stereo not drawn)
Outgoing: inactive

Incoming: Any idea what this test logged for "O=[N+]([O-])c1cnc[nH]1" ?
Outgoing: inactive

Incoming: Recorded call for O=C(CC1(O)C(=O)N(Cc2ccccc2)c2ccccc21)c1ccc(C(=O)NCC2CCC3(CC2)OOC2(CCCCC2)OO3)cc1 (stereo not drawn) ?
Outgoing: active

Incoming: Call for entry "CC(=O)O[C@H](C[C@H](C(C)C)N(C)C(=O)[C@@H](NC(=O)[C@H]1CCCCN1C)C(C)C)c1nc(C(=O)N[C@@H](Cc2ccccc2)C[C@H](C)C(=O)O)c(CCOCc2ccccc2)s1" :
Outgoing: active

The values you see were collected from PubChem BioAssay (NCI).
